biological target: Butyrylcholinesterase (Equus caballus)
// returns NO unless IC50 is strictly below 10 µM, in which case YES

Regarding CC#CCN(C)Cc1cc2cc(OCc3ccccc3)ccc2[nH]1 , kindly confirm whether its IC50 is beneath 10 µM.
YES

Here's an entry: C#CCN1CCc2nc3nc(Cl)c(C#N)cc3c(N)c2C1 . Is its IC50 below 10 µM?
NO

More entries:
IC50 under 10 µM? Item: C#CCN1CCc2nc3ccccc3c(N)c2C1
YES

I wonder whether CC#CCN(C)Cc1cc2cc(OCc3ccccc3)ccc2n1C has IC50 below 10 µM. Can you tell?
NO

---

biological target: UniProt O42275
Quantity Name: Ki (nM)
Give bare numbers, in nM.

Indicate the recorded Ki value for this molecule: C#CCN1CCc2nc3nc(N4CCCC4)c(C#N)cc3c(N)c2C1
65

---

target: Acetylcholinesterase (Electrophorus electricus, UniProt O42275)
Sequence (O42275 whole entry): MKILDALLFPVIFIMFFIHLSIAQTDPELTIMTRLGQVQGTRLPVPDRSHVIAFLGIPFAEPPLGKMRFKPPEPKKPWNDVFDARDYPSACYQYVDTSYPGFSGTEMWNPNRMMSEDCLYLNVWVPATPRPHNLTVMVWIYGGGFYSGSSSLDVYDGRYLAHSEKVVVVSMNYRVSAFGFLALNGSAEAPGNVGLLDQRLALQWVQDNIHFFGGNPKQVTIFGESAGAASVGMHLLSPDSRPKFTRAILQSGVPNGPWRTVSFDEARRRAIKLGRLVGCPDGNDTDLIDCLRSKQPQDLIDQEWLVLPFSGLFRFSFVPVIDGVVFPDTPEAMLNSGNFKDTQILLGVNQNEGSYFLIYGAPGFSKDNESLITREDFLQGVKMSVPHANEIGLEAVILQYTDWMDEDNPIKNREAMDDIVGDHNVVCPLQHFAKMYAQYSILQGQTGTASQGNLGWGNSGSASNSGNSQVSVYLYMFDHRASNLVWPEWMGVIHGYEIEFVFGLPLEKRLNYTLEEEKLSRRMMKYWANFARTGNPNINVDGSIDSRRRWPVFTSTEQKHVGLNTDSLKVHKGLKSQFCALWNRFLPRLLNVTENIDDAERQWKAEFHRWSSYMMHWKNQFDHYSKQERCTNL
Please respond with reported IC50 for every item in the list.
Numbers only, in µM.

Some compounds with known IC50 results, for comparison:
Please report IC50 for the following compound: C#CCN1CCc2nc3nc(OC)c(C#N)cc3c(N)c2C1
0.54

# return recorded IC50 for entry C#CCN1CCc2nc3nc(N4CCCC4)c(C#N)cc3c(N)c2C1
0.025

Please examine the following record next.
Give the measured IC50 for C#CCN1CCc2nc3ccccc3c(N)c2C1
1.5

---

target: Amine oxidase [flavin-containing] A (Rattus norvegicus, UniProt P21396); experiment: biochemical
Sequence (P21396 whole entry): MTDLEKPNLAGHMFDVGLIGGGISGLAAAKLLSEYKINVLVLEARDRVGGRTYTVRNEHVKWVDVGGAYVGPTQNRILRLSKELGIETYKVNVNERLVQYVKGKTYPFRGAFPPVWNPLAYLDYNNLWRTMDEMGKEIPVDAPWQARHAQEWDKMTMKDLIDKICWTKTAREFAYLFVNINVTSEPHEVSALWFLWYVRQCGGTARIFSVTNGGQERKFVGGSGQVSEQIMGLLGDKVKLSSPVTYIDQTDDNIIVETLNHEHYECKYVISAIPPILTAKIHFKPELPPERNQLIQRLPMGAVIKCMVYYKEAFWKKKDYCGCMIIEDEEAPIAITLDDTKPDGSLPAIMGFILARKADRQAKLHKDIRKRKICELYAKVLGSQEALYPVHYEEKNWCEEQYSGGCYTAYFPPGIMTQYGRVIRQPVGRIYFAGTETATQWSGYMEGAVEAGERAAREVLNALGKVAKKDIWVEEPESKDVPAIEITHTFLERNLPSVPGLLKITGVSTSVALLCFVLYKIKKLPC
Description: Inhibition of mitochondrial MAO-A in rat liver homogenates using [14C]-(5-hydroxy-triptamine) as substrate preincubated for 30 mins by liquid scintillation counting
Exercise: state measured pIC50 for each of the compounds provided.
Answers are plain numbers, as −log10 of the molar value.

// Input: C#CCN1CCc2nc3nc(N4CCCCC4)c(C#N)cc3c(N)c2C1 . Output its pIC50 only.
3.48

Indicate the recorded pIC50 value for this compound: C#CCN1CCc2nc3nc(N4CCCC4)c(C#N)cc3c(N)c2C1
3.21

Return reported pIC50 values for all items listed beneath this line.
1. C#CCN1CCc2nc3nc(Cl)c(C#N)cc3c(N)c2C1
2. CNCc1cc2cc(OCc3ccccc3)ccc2n1C
3. C#CCN1CCc2nc3nc(N(C)C)c(C#N)cc3c(N)c2C1

1. 2.98
2. 4.00
3. 3.00

Can you give me pIC50 for all of these, one by one?
1. C#CCN1CCc2nc3nc(OC)c(C#N)cc3c(N)c2C1
2. C#CCN1CCc2nc3ccccc3c(N)c2C1

[3.31, 3.62]

---

biological target: Butyrylcholinesterase (Equus caballus, UniProt Q9N1N9); assay: Competitive inhibition of equine serum BChE using acetylthiocholine as substrate by Lineweaver-Burk plot analysis
Sequence (Q9N1N9 whole entry): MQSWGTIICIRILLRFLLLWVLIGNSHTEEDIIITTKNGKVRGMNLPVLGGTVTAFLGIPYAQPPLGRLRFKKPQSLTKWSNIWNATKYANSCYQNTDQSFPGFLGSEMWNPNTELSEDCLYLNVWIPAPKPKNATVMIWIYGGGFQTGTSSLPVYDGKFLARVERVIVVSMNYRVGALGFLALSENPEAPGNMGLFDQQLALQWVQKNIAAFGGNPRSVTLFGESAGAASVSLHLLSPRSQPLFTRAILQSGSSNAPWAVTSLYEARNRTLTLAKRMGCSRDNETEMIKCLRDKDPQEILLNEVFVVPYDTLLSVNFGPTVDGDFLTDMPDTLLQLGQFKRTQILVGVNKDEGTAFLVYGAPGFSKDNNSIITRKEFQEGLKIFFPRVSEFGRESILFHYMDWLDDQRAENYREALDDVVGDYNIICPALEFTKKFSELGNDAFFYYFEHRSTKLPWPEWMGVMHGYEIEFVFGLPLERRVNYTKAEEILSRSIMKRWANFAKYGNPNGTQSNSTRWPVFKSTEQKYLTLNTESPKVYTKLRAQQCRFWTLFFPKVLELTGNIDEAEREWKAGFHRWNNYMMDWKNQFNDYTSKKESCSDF
Quantity Name: Ki
A bare number is not enough; add the unit after it.

Consider the compound CC#CCN(C)Cc1cc2cc(OCc3ccccc3)ccc2[nH]1 and give its recorded Ki.
7.1 µM

---

pIC50: −log10 of the molar value.
Assay system Acetylcholinesterase (Electrophorus electricus); read-out recorded as pIC50.

Below are 3 molecules. Give each one its pIC50.
1. C#CCN(C)Cc1cc2cc(OCc3ccccc3)ccc2n1C
2. C#CCNCc1cc2cc(OCc3ccccc3)ccc2[nH]1
3. C=C=CCN(C)Cc1cc2cc(OCc3ccccc3)ccc2n1C

1. < 4.00
2. < 4.00
3. < 4.00

---

Consider the following compounds; for each one, report its pIC50.
molecular target: Butyrylcholinesterase (Equus caballus)
One number for each entry, as −log10 of the molar value.

Worked set:
Give pIC50 for the following compound: C#CCN(C)Cc1cc2cc(OCc3ccccc3)ccc2[nH]1
4.66

Give pIC50 for C#CCN1CCc2nc3nc(N4CCCC4)c(C#N)cc3c(N)c2C1
4.57

Please report the measured pIC50 for C=C=CCN(C)Cc1cc2cc(OCc3ccccc3)ccc2n1C
4.85

Input CNCc1cc2cc(OCc3ccccc3)ccc2n1C , output reported pIC50.
4.96

Quote pIC50 reported for C#CCNCc1cc2cc(OCc3ccccc3)ccc2[nH]1 please.
4.37

Now for a further compound.
Given the compound C#CCN1CCc2nc3nc(N4CCCCC4)c(C#N)cc3c(N)c2C1 , write its reported pIC50.
5.00
